Tested on: SNB-75 CNS
Test: NCI tumour cell line growth inhibition, 48 h
property: TGI (µM)
Supply the numeric figure in µM, leaving out any unit text.

Sample records with TGI:
| compound | target.or.system | TGI (µM) |
| --- | --- | --- |
| COc1ccc(N2C(=O)C3c4[nH]c5ccc(F)cc5c4C4CCC(c5ccccc5)CC4C3C2=O)cc1 (stereo not given) | SNB-75 CNS | 31.6 |
| C=C1C(=O)O[C@@H]2C[C@]3(C)CC[C@]4(C)[C@H](CC[C@@H]5[C@@]6(C)CCC(=O)C(C)(C)[C@@H]6CC[C@]54C)[C@H]3[C@H]12 | SNB-75 CNS | 43.9 |

Now turn to the next compound.
## Input Give TGI; test system SNB-75 CNS; compound COc1ccc(C(=O)c2cc3c(N)c(C(=O)Nc4ccc(C)cc4)sc3nc2C)cc1
## Output 5.99
